The reported measurements were obtained from the METLIN SMRT retention time set (Domingo-Almenara et al. 2019).

Assay: gradient 5% acetonitrile 3 min, to 50% in 2 min, to 85% in 15 min, held 3 min, 100 µL/min
Conditions: column: Zorbax Extend-C18 2.1 x 50 mm; eluents: water / acetonitrile, 0.1% formic acid
Assay Metric: RP-LC retention time (s)

Solved cases below.
>  <Compound>
CCc1ccc2nc(Nc3ncc4c(n3)CCCC4=O)nc(C)c2c1

>  <RP-LC retention time / s>
650

$$$$
>  <Compound>
CC1Cc2ccccc2N1C(=O)Cc1csc2nc(-c3ccccc3)cn12 (stereo not given)

>  <RP-LC retention time / s>
881

$$$$

P. CC1Oc2ccccc2N(Cc2nc(-c3ccc(Cl)cc3)no2)C1=O (stereo not given)
Q. CN1CCCC1c1nc(C2CN(C(=O)CCc3nc4ccccc4s3)C2)no1 (stereo not given)
When P and Q are compared, which has the higher number for RP-LC retention time? Returns: label corresponding to the selected item.
P

A. CCC(=O)N(C1CCOCC1)C1CCN(S(=O)(=O)c2ccc(CC)cc2)CC1
B. Cc1nc(N2CCOCC2)c2c(C(=O)NCC3CCN(Cc4ccccc4Cl)CC3)c(C)oc2n1
Pick one: A or B . Which one has the lower reported RP-LC retention time? The response must carry the label of the picked entry.
B

A. O=S(=O)(CCCOc1ccc(F)cc1)NCc1ccccn1
B. CCCNC(=O)c1ccc2c(=O)n(Cc3ccccc3)c(N(CC)CC)nc2c1
Parameter check: reported RP-LC retention time is higher for which label, A or B ? API: response body contains the label of the selected item.
B
(B: 997 s, A: 645 s)

1. Cc1ccc2ncn(C3CCN(S(=O)(=O)c4ccc(F)cc4)CC3)c(=O)c2c1
2. CC(C(=O)N1CCN(c2ccccn2)CC1)n1c2ccccc2c2cnn(C)c(=O)c21 (stereo not given)
Could you kindly indicate whether 1 or 2 has the higher RP-LC retention time value? # respond with the chosen item's label
1
